experimental-target: T1, VLP2 (virus-like particles of AAV2) (AAV2, UniProt P03135 1-735; P03135 1-598; P03135 1-533)
T1 construct: Empty AAV2 capsid; background says about 60 protein molecules, VP1:VP2:VP3 = 1:1:10; Immobilised on the ELISA plate
T1 sequence (P03135 whole entry, chain 1 of 3): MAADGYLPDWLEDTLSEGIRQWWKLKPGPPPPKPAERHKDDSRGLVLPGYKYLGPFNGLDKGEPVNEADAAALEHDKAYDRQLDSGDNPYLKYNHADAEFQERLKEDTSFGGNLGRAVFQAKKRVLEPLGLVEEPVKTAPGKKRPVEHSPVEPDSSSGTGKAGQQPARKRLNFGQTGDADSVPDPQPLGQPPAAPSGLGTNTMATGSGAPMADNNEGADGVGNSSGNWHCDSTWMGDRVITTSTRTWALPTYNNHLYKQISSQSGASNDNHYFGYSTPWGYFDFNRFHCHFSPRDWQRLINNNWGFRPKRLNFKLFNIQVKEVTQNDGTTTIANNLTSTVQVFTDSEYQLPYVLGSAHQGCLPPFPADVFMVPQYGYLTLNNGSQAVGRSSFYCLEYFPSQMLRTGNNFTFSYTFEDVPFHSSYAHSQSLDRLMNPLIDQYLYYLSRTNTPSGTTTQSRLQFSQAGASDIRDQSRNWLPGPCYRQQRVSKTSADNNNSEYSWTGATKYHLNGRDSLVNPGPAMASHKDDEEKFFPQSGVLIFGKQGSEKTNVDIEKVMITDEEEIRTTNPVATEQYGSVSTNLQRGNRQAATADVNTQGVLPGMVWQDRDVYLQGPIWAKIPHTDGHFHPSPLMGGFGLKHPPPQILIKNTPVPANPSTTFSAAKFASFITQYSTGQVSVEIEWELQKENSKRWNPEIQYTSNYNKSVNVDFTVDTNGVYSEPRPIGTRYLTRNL
T1 sequence (P03135 139-735, tags left off, chain 2 of 3): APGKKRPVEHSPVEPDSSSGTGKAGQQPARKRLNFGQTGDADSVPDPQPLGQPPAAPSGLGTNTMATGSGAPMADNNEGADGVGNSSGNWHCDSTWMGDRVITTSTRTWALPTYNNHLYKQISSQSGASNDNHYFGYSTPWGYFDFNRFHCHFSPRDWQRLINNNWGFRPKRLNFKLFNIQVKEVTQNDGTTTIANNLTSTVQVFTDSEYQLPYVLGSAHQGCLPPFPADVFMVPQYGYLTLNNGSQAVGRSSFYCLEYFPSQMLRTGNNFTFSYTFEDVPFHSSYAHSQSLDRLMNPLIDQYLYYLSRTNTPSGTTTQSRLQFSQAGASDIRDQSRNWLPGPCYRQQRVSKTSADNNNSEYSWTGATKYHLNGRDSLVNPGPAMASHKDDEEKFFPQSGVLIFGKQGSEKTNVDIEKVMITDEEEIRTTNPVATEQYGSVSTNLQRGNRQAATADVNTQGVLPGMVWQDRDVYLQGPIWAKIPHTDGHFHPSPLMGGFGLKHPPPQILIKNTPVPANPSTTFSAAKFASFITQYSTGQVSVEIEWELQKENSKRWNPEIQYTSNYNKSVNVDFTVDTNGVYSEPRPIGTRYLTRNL
T1 sequence (P03135 203-735, chain 3 of 3): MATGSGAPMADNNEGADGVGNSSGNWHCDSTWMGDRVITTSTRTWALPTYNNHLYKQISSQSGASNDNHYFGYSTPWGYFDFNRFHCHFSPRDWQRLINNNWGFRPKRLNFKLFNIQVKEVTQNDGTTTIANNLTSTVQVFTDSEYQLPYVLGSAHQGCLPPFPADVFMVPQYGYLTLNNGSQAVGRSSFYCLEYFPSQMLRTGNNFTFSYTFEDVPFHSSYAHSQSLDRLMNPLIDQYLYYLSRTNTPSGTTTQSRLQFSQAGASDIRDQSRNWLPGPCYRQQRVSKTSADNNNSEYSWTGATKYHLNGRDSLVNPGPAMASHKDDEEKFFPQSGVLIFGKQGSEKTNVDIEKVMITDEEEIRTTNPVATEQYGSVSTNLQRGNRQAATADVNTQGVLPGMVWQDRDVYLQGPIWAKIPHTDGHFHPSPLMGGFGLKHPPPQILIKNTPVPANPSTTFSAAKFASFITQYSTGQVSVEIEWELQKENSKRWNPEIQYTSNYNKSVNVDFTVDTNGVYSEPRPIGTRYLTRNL
measurement-description: ELISA on VLP2; binding after pH 3.0 51.1°C 15 min / untreated;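 note: binding of the heat-treated AAV-binding protein to VLP2, expressed as a percentage of the binding of the same protein without heating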
For each entry below, report its Residual activity [%] value.
The answer is to be given in %; state only the numeric part.

response.value for AAV-binding protein No. 82 (AVR2 + Ser476Arg, Thr490Ser) (receptor) MGSAGESVQITLPKNEVQLNAYVLQEPPKGETCTYDWQLITHPRDYSGEMEGKHSQILKLSKLTPGLYEFKVIVEGQNAHSEGYVNVTVKPEPRKNRPPIAIVSPQFQEISLPTTSTVIDGSQSTDDDKIVQYHWEELKGPLREEKISEDTAILKLSKLVPGNYTFRLTVVDSDGATNSTSANLTVNKAVDHHHHHH (field: Residual activity [%]) = 70.6

Measured Residual activity [%], AAV-binding protein No. 61 (AVR2 + Leu328Gln) (receptor) MGSAGESVQITLPKNEVQQNAYVLQEPPKGETCTYDWQLITHPRDYSGEMEGKHSQILKLSKLTPGLYEFKVIVEGQNAHSEGYVNVTVKPEPRKNRPPIAIVSPQFQEISLPTTSTVIDGSQSTDDDKIVQYHWEELKGPLREEKISEDTAILKLSKLVPGNYTFSLTVVDSDGATNSTTANLTVNKAVDHHHHHH : 43.5

Measured values drawn from patent US20220402995A1 for this set.
